assay: Hemolytic activity in human RBC assessed as hemoglobin release after 1 hr; assay type: ADME, cell-based, Erythrocyte; settings: human red blood cells
Outcome Measure: log10 HC50 at 1 h (log10 of the value in µg/mL)
All values: log10 HC50 at 1 h [µg/mL].

1. NCCCOc1cc(OCCCN)cc(-c2cc(-c3cc(OCCCN)cc(OCCCN)c3)cc(-c3cc4ccccc4[nH]3)c2)c1; 2.80
2. NCCCOc1cc(OCCCN)cc(-c2cc(NC(=O)c3ccc(-c4ccccc4)cc3)cc(-c3cc(OCCCN)cc(OCCCN)c3)c2)c1; 2.05

Record log10 HC50 at 1 h per entry; entries follow.
1. NCCCOc1cc(OCCCN)cc(-c2cc(-c3ccccc3)cc(-c3cc(OCCCN)cc(OCCCN)c3)c2)c1
2. NCCCOc1cc(OCCCN)cc(-c2cc(NC(=O)Cc3c[nH]c4ccccc34)cc(-c3cc(OCCCN)cc(OCCCN)c3)c2)c1
3. Cc1ccc(-c2cc(-c3cc(OCCCN)cc(OCCCN)c3)cc(-c3cc(OCCCN)cc(OCCCN)c3)c2)cc1

Outgoing:
2.73
2.72
2.45

Record log10 HC50 at 1 h per entry; entries follow.
1. NCCCOc1cc(OCCCN)cc(-c2cc(NC(=O)c3ccc4ccccc4c3)cc(-c3cc(OCCCN)cc(OCCCN)c3)c2)c1
2. CC(C)(C)c1ccc(-c2cc(-c3cc(OCCCN)cc(OCCCN)c3)cc(-c3cc(OCCCN)cc(OCCCN)c3)c2)cc1
3. NCCCOc1cc(OCCCN)cc(-c2cc(-c3cc(OCCCN)cc(OCCCN)c3)cc(-c3cc(C(F)(F)F)cc(C(F)(F)F)c3)c2)c1

Outgoing:
2.63
1.61
1.53

Entry source: ChEMBL document CHEMBL2384935
